From: PubChem BioAssay (NCI)

Field: TGI. Provide a value for each of the molecules that follow.
# Test system: SN12C renal
# experimental details: NCI tumour cell line growth inhibition, 48 h
Give bare numbers, in µM.

Examples with answers:
molecule="COc1cc2c3c(c1OC)C1(C=CC(=O)C=C1)CC3N(C(=O)OC(C)(C)C(Cl)(Cl)Cl)CC2 (centres undefined)" endpoint_value=26.6
molecule=COc1ccc(NC(=O)CC(=O)n2nc(-c3ccccc3)c(N=Nc3ccc(C)cc3)c2-c2ccccc2)cc1 endpoint_value=81.9
molecule=CC(C)=CCC[C@@H](C)c1c(O)c(O)c(C)c2nc3ccccc3nc12 endpoint_value=6.38

Qu. Supply measured TGI of COc1c2c(cc3oc(=O)ccc13)OC(C)(C)C=C2 in your reply.
Ans. 100
